Recorded measurements of LogDpH=7.4, one per entry
- assay-info: Octanol-water distribution coefficient (logD pH 7.4) of the labeled tracer
- Format: physicochemical
- test-context: n-octanol/PBS pH 7.4, room temperature
Respond with the number and no other words.

Study these solved cases before continuing.
C[C@@H](O)[C@@H]1NC(=O)[C@H](CCCCN)NC(=O)C(Cc2ccc(NC(N)=O)cc2)NC(=O)[C@H](Cc2ccc(NC(=O)C3CC(=O)NC(=O)N3)cc2)NC(=O)[C@H](NC(=O)[C@H](Cc2ccc(Cl)cc2)NC(=O)CNC(=O)CNC(=O)CNC(=O)C(CC(=O)O)NC(=O)[C@@H](CC(N)=O)NC(=O)C(CNC(=O)CN2CCN(CC(=O)O)CCN(CC(=O)O)CCN(CC(=O)O)CC2)NC(=O)C[N+](C)(C)Cc2ccc([Si](F)(C(C)(C)C)C(C)(C)C)cc2)CSSCC(C(=O)NC(Cc2ccc(O)cc2)C(N)=O)NC1=O (stereo partly shown) (natGa complex, metal not drawn) [[Ga]59] = −2.14
C[C@@H](O)[C@H](NC(=O)C1CSSCC(NC(=O)C(Cc2ccccc2)NC(=O)CNC(=O)CNC(=O)[C@@H](CC(=O)O)NC(=O)C(CC(=O)O)NC(=O)[C@@H](CNC(=O)CN2CCN(CC(=O)O)CCN(CC(=O)O)CCN(CC(=O)O)CC2)NC(=O)C(CN)NC(=O)c2ccc([Si](F)(C(C)(C)C)C(C)(C)C)cc2)C(=O)N[C@@H](Cc2ccc(O)cc2)C(=O)NC(Cc2c[nH]c3ccccc23)C(=O)N[C@@H](CCCCN)C(=O)N[C@@H]([C@@H](C)O)C(=O)N1)C(=O)O (stereo partly shown) [[Lu]19] = −1.85
C[C@@H](O)[C@H](NC(=O)C1CSSCC(NC(=O)C(Cc2ccccc2)NC(=O)CNC(=O)CNC(=O)CNC(=O)C(CC(=O)O)NC(=O)[C@@H](CC(=O)O)NC(=O)C(CCC(=O)O)NC(=O)[C@@H](CNC(=O)C[N+](C)(C)Cc2ccc([Si](F)(C(C)(C)C)C(C)(C)C)cc2)NC(=O)CN2CCN(CC(=O)O)CCN(CC(=O)O)CCN(CC(=O)O)CC2)C(=O)N[C@@H](Cc2ccc(O)cc2)C(=O)NC(Cc2c[nH]c3ccccc23)C(=O)N[C@@H](CCCCN)C(=O)N[C@@H]([C@@H](C)O)C(=O)N1)C(=O)O (stereo partly shown) [[Lu]47] = −2.29

Now examine the next entry.
Qu. Look up LogDpH=7.4 of C[C@@H](O)[C@H](NC(=O)C1CSSCC(NC(=O)C(Cc2ccccc2)NC(=O)CNC(=O)CNC(=O)[C@@H](CC(=O)O)NC(=O)C(CC(=O)O)NC(=O)[C@@H](CNC(=O)CN2CCN(CC(=O)O)CCN(CC(=O)O)CCN(CC(=O)O)CC2)NC(=O)C[N+](C)(C)Cc2ccc([Si](F)(C(C)(C)C)C(C)(C)C)cc2)C(=O)N[C@@H](Cc2ccc(O)cc2)C(=O)NC(Cc2c[nH]c3ccccc23)C(=O)N[C@@H](CCCCN)C(=O)N[C@@H]([C@@H](C)O)C(=O)N1)C(=O)O (stereo partly shown) [[Ga]24] and report it.
Ans. −1.92

* * *

- assay-system: HSA (Homo sapiens, UniProt P02768)
- Sequence (P02768 25-609): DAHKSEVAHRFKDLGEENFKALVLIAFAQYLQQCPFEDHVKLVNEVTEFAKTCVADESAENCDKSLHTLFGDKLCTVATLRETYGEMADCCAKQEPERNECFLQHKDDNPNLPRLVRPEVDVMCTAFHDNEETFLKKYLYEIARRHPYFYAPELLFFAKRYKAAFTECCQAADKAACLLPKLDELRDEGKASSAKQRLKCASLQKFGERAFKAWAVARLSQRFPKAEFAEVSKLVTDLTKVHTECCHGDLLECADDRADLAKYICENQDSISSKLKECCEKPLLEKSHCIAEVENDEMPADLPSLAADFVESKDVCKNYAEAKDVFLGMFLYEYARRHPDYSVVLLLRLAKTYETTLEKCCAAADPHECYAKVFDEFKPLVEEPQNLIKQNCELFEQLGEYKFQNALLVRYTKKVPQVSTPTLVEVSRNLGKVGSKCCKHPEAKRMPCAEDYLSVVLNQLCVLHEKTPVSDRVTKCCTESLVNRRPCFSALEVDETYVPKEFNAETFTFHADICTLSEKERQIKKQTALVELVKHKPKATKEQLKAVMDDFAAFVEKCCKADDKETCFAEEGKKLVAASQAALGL
- assay-info: HSA binding by RIAC method (gel filtration, apparent molecular weight)
- Assay type: in vitro ADME
- test-context: HSA binding as apparent molecular weight, 700 μM HSA in PBS mobile phase
measurement-name: HSA
Be sure to follow the number with its unit.

C[C@@H](O)[C@H](NC(=O)C1CSSCC(NC(=O)C(Cc2ccccc2)NC(=O)CNC(=O)CNC(=O)CNC(=O)C(CC(=O)O)NC(=O)[C@@H](CC(=O)O)NC(=O)C(CNC(=O)CN2CCN(CC(=O)O)CCN(CC(=O)O)CCN(CC(=O)O)CC2)NC(=O)[C@@H](CN)NC(=O)CNC(=O)CNC(=O)C[N+](C)(C)Cc2ccc([Si](F)(C(C)(C)C)C(C)(C)C)cc2)C(=O)N[C@@H](Cc2ccc(O)cc2)C(=O)NC(Cc2c[nH]c3ccccc23)C(=O)N[C@@H](CCCCN)C(=O)N[C@@H]([C@@H](C)O)C(=O)N1)C(=O)O (some centres unmarked) [[Ga]53] = 8.48 kDa

Now examine the next entry.
Qu. Look up HSA of C[C@@H](O)[C@H](NC(=O)C1CSSCC(NC(=O)C(Cc2ccccc2)NC(=O)[C@@H](CC(N)=O)NC(=O)C(CC(N)=O)NC(=O)[C@@H](CC(=O)O)NC(=O)C(CC(=O)O)NC(=O)[C@@H](CNC(=O)CN2CCN(CC(=O)O)CCN(CC(=O)O)CCN(CC(=O)O)CC2)NC(=O)C(CN)NC(=O)c2ccc([Si](F)(C(C)(C)C)C(C)(C)C)cc2)C(=O)N[C@@H](Cc2ccc(O)cc2)C(=O)NC(Cc2c[nH]c3ccccc23)C(=O)N[C@@H](CCCCN)C(=O)N[C@@H]([C@@H](C)O)C(=O)N1)C(=O)O (some centres unmarked) (natGa complex, metal not drawn) [[Ga]42] and report it.
Ans. 17.97 kDa
